Recorded values, source the antibiotic and cytotoxicity screens of Wong et al. (2023).

Tested on: HepG2
protocol details: cytotoxicity call (relative viability < 0.9)
measurement parameters: 10 µM
Screen size: about 39,000 compounds; about 3,300 (8.5%) were called active. The sample as a whole holds a higher share of actives than the screen did.
measured parameter: cytotoxicity call

[
  {
    "compound": "COc1ccccc1OCCNCC(O)COc1cccc2[nH]c3ccccc3c12.O=P(O)(O)O (stereo not given)",
    "assay target": "HepG2",
    "value reported": "active"
  },
  {
    "compound": "COc1ccccc1OC[C@@H](O)CO",
    "assay target": "HepG2",
    "value reported": "inactive"
  },
  {
    "compound": "Cc1noc(C)c1S(=O)(=O)Nc1ccc2c(c1)C(=O)N([C@H](C)CO)C[C@H](C)[C@@H](CN(C)C(=O)NC1CCCCC1)O2",
    "assay target": "HepG2",
    "value reported": "inactive"
  },
  {
    "compound": "COc1cccc(OC)c1OCCNCCO",
    "assay target": "HepG2",
    "value reported": "inactive"
  },
  {
    "compound": "COc1ccccc1OCCNCC(O)COc1cccc2[nH]c3ccccc3c12 (stereo not given)",
    "assay target": "HepG2",
    "value reported": "active"
  },
  {
    "compound": "C[C@H](CO)N1C[C@H](C)[C@@H](CN(C)Cc2ccc(C(=O)Nc3ccccc3N)cc2)Oc2ccc(NC(=O)Nc3ccc4c(c3)OCO4)cc2CC1=O",
    "assay target": "HepG2",
    "value reported": "inactive"
  },
  {
    "compound": "CCS(=O)(=O)NCc1nccc(N(C)C)n1",
    "assay target": "HepG2",
    "value reported": "inactive"
  },
  {
    "compound": "COc1ccc(NC(=O)N(C)C[C@H]2Oc3c(NC(=O)CCCCCC(=O)Nc4ccccc4N)cccc3C(=O)N([C@@H](C)CO)C[C@H]2C)cc1",
    "assay target": "HepG2",
    "value reported": "inactive"
  },
  {
    "compound": "COc1ccccc1OCC(O)CO (stereo not given)",
    "assay target": "HepG2",
    "value reported": "inactive"
  },
  {
    "compound": "C[C@H]1CN([C@@H](C)CO)C(=O)CCCn2cc(nn2)CO[C@@H]1CN(C)S(=O)(=O)c1ccc2ccccc2c1",
    "assay target": "HepG2",
    "value reported": "inactive"
  }
]
